system: primary mouse hepatocytes; test: Gene expression in primary mouse hepatocytes, GTX vs non-GTX (four-gene classifier, 24 h); details: log 2 ratio; 24 h exposure; concentration per Table 4
// FALSE strictly below 0.02 in Ratios of gene expression treated/untreated GAS2L3; TRUE otherwise

Example entries begin here.
[[record]]
compound = "CN(C)N=O [DMN, Dimethylnitrosamine]"
label_class = "TRUE"

[[record]]
compound = "CC(C)(c1ccc(O)cc1)c1ccc(O)cc1 [BPA, Bisphenol A]"
label_class = "FALSE"

[[record]]
compound = "OC[C@@H](O)[C@@H](O)[C@H](O)[C@H](O)CO [dMan, D-Mannitol]"
label_class = "FALSE"

[[record]]
compound = "Cc1cccc(Nc2cc(Cl)nc(SCC(=O)O)n2)c1C [Wyeth, Wy-14,643]"
label_class = "FALSE"

[[record]]
compound = "Clc1cc2c(cc1Cl)Oc1cc(Cl)c(Cl)cc1O2 [TCDD, 2,3,7,8-Tetrachlorodibenzodioxin]"
label_class = "TRUE"

[[record]]
compound = "CCCCCCCCCCCCCC(=O)O[C@@H]1[C@@H](C)[C@@]2(O)[C@@H](C=C(CO)C[C@]3(O)C(=O)C(C)=C[C@@H]23)[C@@H]2C(C)(C)[C@]12OC(C)=O [TPA, Tetradecanoylphorbol Acetate]"
label_class = "FALSE"

[[record]]
compound = "CCC[CH2][Sn]([CH2]CCC)([CH2]CCC)[O][Sn]([CH2]CCC)([CH2]CCC)[CH2]CCC [TBTO, Bis(tri-n-butyltin)oxide]"
label_class = "FALSE"


Now for a further compound.
Reported Ratios of gene expression treated/untreated GAS2L3 at or above 0.02? ClC(Cl)(Cl)Cl [CCI4, Carbon tetrachloride]
FALSE

* * *

system: primary mouse hepatocytes; test: Gene expression (Affymetrix Mouse Genome 430 2.0) in primary mouse hepatocytes, true vs false GTX, 24 h and 48 h; conditions: 24 h average; log2, corrected for vehicle control
Here the recorded Gene expression data BC016265 (Ube2e2) is given for each entry.
Answer as a number with no unit attached.

[[record]]
structure = "CC(=O)Nc1ccc2c(c1)Cc1ccccc1-2"
measurement_label = "Gene expression data BC016265 (Ube2e2)"
endpoint_result = "−0.3984"

[[record]]
structure = "Nc1ccccc1C(=O)O"
measurement_label = "Gene expression data BC016265 (Ube2e2)"
endpoint_result = 0.01507

[[record]]
structure = "O=c1c(O)c(-c2ccc(O)c(O)c2)oc2cc(O)cc(O)c12"
measurement_label = "Gene expression data BC016265 (Ube2e2)"
endpoint_result = 0.1622

[[record]]
structure = "Nc1ccc([N+](=O)[O-])cc1N"
measurement_label = "Gene expression data BC016265 (Ube2e2)"
endpoint_result = 0.03433

[[record]]
structure = "c1ccc2c(c1)cc1ccc3cccc4ccc2c1c34"
measurement_label = "Gene expression data BC016265 (Ube2e2)"
endpoint_result = "−0.751"


Next, consider the following compound.
Given the compound CN(C)N=O , what is its reported Gene expression data BC016265 (Ube2e2)?
−1.287

* * *

test system: primary mouse hepatocytes; assay: Gene expression (Affymetrix Mouse Genome 430 2.0) in primary mouse hepatocytes, true vs false GTX, 24 h and 48 h; settings: 24 h average; log2, corrected for vehicle control
Measurement Label: Gene expression data AK014608 (4632434l11Rik)
Give a plain numeric answer without units written out.

I have this compound here, CN(C)N=O , and I need its recorded Gene expression data AK014608 (4632434l11Rik).
1.756

Fill blank: measured Gene expression data AK014608 (4632434l11Rik) of the compound c1ccc2c(c1)cc1ccc3cccc4ccc2c1c34 is ____.
1.665

Item under review: O=c1c(O)c(-c2ccc(O)c(O)c2)oc2cc(O)cc(O)c12 . Reported Gene expression data AK014608 (4632434l11Rik)?
0.03273

* * *

system: primary mouse hepatocytes; assay: Gene expression (Affymetrix Mouse Genome 430 2.0) in primary mouse hepatocytes, true vs false GTX, 24 h and 48 h; settings: 24 h average; log2, corrected for vehicle control
Measurement Label: Gene expression data BB770528 (Rai2)
Answer with a bare number; do not write a unit.

// below: answered compounds
[[record]]
compound = "c1ccc2c(c1)cc1ccc3cccc4ccc2c1c34 [BaP, Benzo(a)pyrene]"
measurement_label = "Gene expression data BB770528 (Rai2)"
endpoint_result = 0.6977

[[record]]
compound = "Nc1ccc([N+](=O)[O-])cc1N [4-NP, 4-Nitro-o-phenylenediamine]"
measurement_label = "Gene expression data BB770528 (Rai2)"
endpoint_result = "−1.122"

[[record]]
compound = "Nc1ccccc1C(=O)O [ANAC, o-Anthranilic acid]"
measurement_label = "Gene expression data BB770528 (Rai2)"
endpoint_result = "−0.08327"


Which measured Gene expression data BB770528 (Rai2) value corresponds to O=c1c(O)c(-c2ccc(O)c(O)c2)oc2cc(O)cc(O)c12 [Q, Quercetin] ?
−0.3109

Gene expression data BB770528 (Rai2) lookup needed for CC(=O)Nc1ccc2c(c1)Cc1ccccc1-2 [2-AAF, 2-Acetylaminofluorene] , thanks.
−0.5052

# Gene expression data BB770528 (Rai2) lookup, item CN(C)N=O [DMN, Dimethylnitrosamine]
2.8

* * *

tested on: primary mouse hepatocytes; assay: Gene expression (Affymetrix Mouse Genome 430 2.0) in primary mouse hepatocytes, true vs false GTX, 24 h and 48 h; conditions: 24 h average; log2, corrected for vehicle control
The entries below come with measured Gene expression data BC004827 (Psat1) values attached.
Please reply with the number alone, leaving off any unit.

# example entries with known answers
[[record]]
structure = "CC(=O)Nc1ccc2c(c1)Cc1ccccc1-2"
endpoint_result = 0.2797

[[record]]
structure = "Nc1ccccc1C(=O)O"
endpoint_result = 0.3937

[[record]]
structure = "c1ccc2c(c1)cc1ccc3cccc4ccc2c1c34"
endpoint_result = "−0.04097"

[[record]]
structure = "O=c1c(O)c(-c2ccc(O)c(O)c2)oc2cc(O)cc(O)c12"
endpoint_result = 0.9258

[[record]]
structure = "Nc1ccc([N+](=O)[O-])cc1N"
endpoint_result = 0.5395


Moving on to another compound below.
Find the recorded Gene expression data BC004827 (Psat1) belonging to CN(C)N=O and report it.
−1.518

* * *

test system: primary mouse hepatocytes; test: Gene expression (Affymetrix Mouse Genome 430 2.0) in primary mouse hepatocytes, true vs false GTX, 24 h and 48 h; conditions: 48 h; log2, corrected for vehicle control
Catalogue of Gene expression AV173869 average readings, one per entry.
Answer with a number only.

[[record]]
structure = "Nc1ccccc1C(=O)O"
assay_target = "primary mouse hepatocytes"
endpoint_result = "−0.005067"

[[record]]
structure = "CN(C)N=O"
assay_target = "primary mouse hepatocytes"
endpoint_result = "−1.272"

[[record]]
structure = "O=c1c(O)c(-c2ccc(O)c(O)c2)oc2cc(O)cc(O)c12"
assay_target = "primary mouse hepatocytes"
endpoint_result = "−0.3593"

[[record]]
structure = "Nc1ccc([N+](=O)[O-])cc1N"
assay_target = "primary mouse hepatocytes"
endpoint_result = 0.1411


For c1ccc2c(c1)cc1ccc3cccc4ccc2c1c34 , what is its reported Gene expression AV173869 average?
−1.924

Give its Gene expression AV173869 average value. Item: CC(=O)Nc1ccc2c(c1)Cc1ccccc1-2
−0.3782

* * *

test system: primary mouse hepatocytes; test: Gene expression (Affymetrix Mouse Genome 430 2.0) in primary mouse hepatocytes, true vs false GTX, 24 h and 48 h; settings: 24 h average; log2, corrected for vehicle control
Quick reference for Gene expression data AV327248 (Zfp365 /// LOC674611) among some compounds

Previously resolved entries follow.
[[record]]
structure = "Nc1ccccc1C(=O)O"
assay_target = "primary mouse hepatocytes"
endpoint_result = 0.0212

[[record]]
structure = "CN(C)N=O"
assay_target = "primary mouse hepatocytes"
endpoint_result = 4.114

[[record]]
structure = "c1ccc2c(c1)cc1ccc3cccc4ccc2c1c34"
assay_target = "primary mouse hepatocytes"
endpoint_result = 1.102

[[record]]
structure = "CC(=O)Nc1ccc2c(c1)Cc1ccccc1-2"
assay_target = "primary mouse hepatocytes"
endpoint_result = 0.0668

[[record]]
structure = "Nc1ccc([N+](=O)[O-])cc1N"
assay_target = "primary mouse hepatocytes"
endpoint_result = "−0.08917"


Turning now to a further compound:
# Gene expression data AV327248 (Zfp365 /// LOC674611) lookup, item O=c1c(O)c(-c2ccc(O)c(O)c2)oc2cc(O)cc(O)c12
0.3116

* * *

Reported Gene expression data NM_008522 (Ltf) by item:
system: primary mouse hepatocytes; test: Gene expression (Affymetrix Mouse Genome 430 2.0) in primary mouse hepatocytes, true vs false GTX, 24 h and 48 h; conditions: 24 h average; log2, corrected for vehicle control
Just the number, please.

In the examples that follow, each entry is paired with its recorded Gene expression data NM_008522 (Ltf).
[[record]]
structure = "Nc1ccc([N+](=O)[O-])cc1N"
measurement_label = "Gene expression data NM_008522 (Ltf)"
endpoint_result = "−0.3018"

[[record]]
structure = "c1ccc2c(c1)cc1ccc3cccc4ccc2c1c34"
measurement_label = "Gene expression data NM_008522 (Ltf)"
endpoint_result = 1.114

[[record]]
structure = "CC(=O)Nc1ccc2c(c1)Cc1ccccc1-2"
measurement_label = "Gene expression data NM_008522 (Ltf)"
endpoint_result = 0.1277

[[record]]
structure = "Nc1ccccc1C(=O)O"
measurement_label = "Gene expression data NM_008522 (Ltf)"
endpoint_result = 0.0771

[[record]]
structure = "O=c1c(O)c(-c2ccc(O)c(O)c2)oc2cc(O)cc(O)c12"
measurement_label = "Gene expression data NM_008522 (Ltf)"
endpoint_result = "−0.09593"


Proceeding to the next compound to report its Gene expression data NM_008522 (Ltf).
Hello, I am looking for reported Gene expression data NM_008522 (Ltf) with primary mouse hepatocytes for CN(C)N=O . Could you help?
3.616
